// data source = PubChem BioAssay (NCI)

# System: UO-31 renal
# experiment: NCI tumour cell line growth inhibition, 48 h
Attribute: TGI
measurement_name: TGI

INSERT INTO measurements (compound, measurement_name, endpoint_value) VALUES
  ('O=C1NC(=O)C(CCC(=O)c2ccc3ccccc3c2)C(=O)N1', 'TGI', '> 100 µM'),
  ('CCC/C=C/c1cc2c(cc1O)CC[C@@H]1[C@@H]2CC[C@]2(C)[C@@H](O)CC[C@@H]12', 'TGI', '31 µM'),
  ('O=C1CN(C(=O)C2CCCN2C(=O)C2CCCN2)C(=O)CN1 (stereo unspecified)', 'TGI', '> 100 µM'),
  ('Cc1ccc(C(=O)N(CCCN)C(c2oc3cc(Cl)ccc3c(=O)c2Cc2ccccc2)C(C)C)cc1 (stereo unspecified)', 'TGI', '2.46 µM'),
  ('CCCC/C=C/C/C=C/CCCCCCCCC(=O)OCC1CCCN2CCCCC12 (stereo unspecified)', 'TGI', '> 100 µM'),
  ('CCOC(=O)C1(Cc2ccccc2)C=CN(C(=O)c2ccccc2)C=C1', 'TGI', '> 100 µM'),
  ('CCC[CH2][Sn]1([CH2]CCC)[O]C(=O)CN=Cc2c(ccc3ccccc23)[O]1', 'TGI', '1.92 µM'),
  ('NC(=S)N1N=C2c3ccccc3CC[C@@H]2[C@@H]1c1ccccc1', 'TGI', '> 94.6 µM'),
  ('O=C1N[C@H]2c3c(Cl)sc(Cl)c3[C@@H](O)[C@H]2O1', 'TGI', '> 100 µM'),
  ('CC1(C)C2CCC(CN)(C2)C1N (stereo unspecified)', 'TGI', '> 100 µM'),
  ('Nc1cccnc1NCC1(CO)CCCC1', 'TGI', '> 100 µM');
